assay: Intrinsic clearance in dog hepatocytes at 1 uM measured after 90 mins by LC-MS/MS analysis; type: ADME, cell-based, Canis lupus familiaris, Hepatocyte; conditions: read-out: CLH
experimental readout: CLint scaled at […], 1 µM

In [3]: df
Out[3]:
                         structure_notation       experimental_readout   recorded_result
0  Cc1cccc(-c2nn3c(c2-c2ccc4ncnn4c2/C=C/C(N)=O)CCC3)n1  CLint scaled at […], 1 µM  < 17.1 mL/min/kg

----------
Biological target: TGF-beta receptor type-1 (Homo sapiens, UniProt P36897)
Sequence (P36897 whole entry): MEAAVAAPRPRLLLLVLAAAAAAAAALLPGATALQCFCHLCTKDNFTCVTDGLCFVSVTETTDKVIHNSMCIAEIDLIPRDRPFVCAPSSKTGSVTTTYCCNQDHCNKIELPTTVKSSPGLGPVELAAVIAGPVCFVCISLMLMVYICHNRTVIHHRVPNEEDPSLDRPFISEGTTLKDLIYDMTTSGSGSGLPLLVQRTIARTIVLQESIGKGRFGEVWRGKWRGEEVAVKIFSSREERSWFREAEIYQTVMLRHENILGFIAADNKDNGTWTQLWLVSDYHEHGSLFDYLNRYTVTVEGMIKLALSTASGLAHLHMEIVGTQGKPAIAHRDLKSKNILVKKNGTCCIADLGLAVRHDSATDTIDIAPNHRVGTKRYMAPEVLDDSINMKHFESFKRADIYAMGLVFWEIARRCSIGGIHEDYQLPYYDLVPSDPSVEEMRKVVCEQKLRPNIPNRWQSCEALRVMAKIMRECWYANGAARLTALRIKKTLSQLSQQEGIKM
Assay: Inhibition of human TGFbetaR1 expressed in HEK293 cells co-expressing SBE assessed as reduction in TGFbeta/activin A-induced SMAD phosphorylation preincubated for 4 to 5 hrs followed by TGFbeta/activin A stimulation and measured after 18 hrs by luciferase reporter gene assay
Type: cell-based
pIC50: −log10 of the molar value.
experimental readout: pIC50

In [3]: df
Out[3]:
                         structure_notation  experimental_readout  recorded_result
0  Cc1cccc(-c2nn3c(c2-c2ccc4ncnn4c2/C=C/C(N)=O)CCC3)n1                 pIC50             6.98

----------
assay: Clearance in Beagle dog at 1 mg/kg, iv by LC-MS/MS analysis; assay type: ADME, organism-based, Canis lupus familiaris; details: in vivo
experimental readout: clearance (mL/min/kg)

>>> print(df.to_string())
                         structure_notation  experimental_readout  endpoint_unit  recorded_result
0  Cc1cccc(-c2nn3c(c2-c2ccc4ncnn4c2/C=C/C(N)=O)CCC3)n1             clearance      mL/min/kg             9.29

----------
assay: Oral bioavailability in CD-1 mouse at 75 mg/kg via gavage by LC-MS/MS analysis; type: ADME, organism-based; settings: in vivo
experimental readout: bioavailability (%)

In [3]: df
Out[3]:
                         structure_notation  experimental_readout  recorded_result
0  Cc1cccc(-c2nn3c(c2-c2ccc4ncnn4c2/C=C/C(N)=O)CCC3)n1       bioavailability             36.8

----------
assay: Half life in Beagle dog at 5 mg/kg, po by LC-MS/MS analysis; format: ADME, organism-based, Canis lupus familiaris; conditions: in vivo
experimental readout: half-life (h)

>>> print(df.to_string())
                         structure_notation  experimental_readout  recorded_result
0  Cc1cccc(-c2nn3c(c2-c2ccc4ncnn4c2/C=C/C(N)=O)CCC3)n1             half-life             2.83
